- System: Protein cereblon/Androgen receptor (Homo sapiens), P10275+Q96SW2 [UNDEFINED MUTATION]
- Sequence (P10275 whole entry, looked up, change not shown, canonical isoform): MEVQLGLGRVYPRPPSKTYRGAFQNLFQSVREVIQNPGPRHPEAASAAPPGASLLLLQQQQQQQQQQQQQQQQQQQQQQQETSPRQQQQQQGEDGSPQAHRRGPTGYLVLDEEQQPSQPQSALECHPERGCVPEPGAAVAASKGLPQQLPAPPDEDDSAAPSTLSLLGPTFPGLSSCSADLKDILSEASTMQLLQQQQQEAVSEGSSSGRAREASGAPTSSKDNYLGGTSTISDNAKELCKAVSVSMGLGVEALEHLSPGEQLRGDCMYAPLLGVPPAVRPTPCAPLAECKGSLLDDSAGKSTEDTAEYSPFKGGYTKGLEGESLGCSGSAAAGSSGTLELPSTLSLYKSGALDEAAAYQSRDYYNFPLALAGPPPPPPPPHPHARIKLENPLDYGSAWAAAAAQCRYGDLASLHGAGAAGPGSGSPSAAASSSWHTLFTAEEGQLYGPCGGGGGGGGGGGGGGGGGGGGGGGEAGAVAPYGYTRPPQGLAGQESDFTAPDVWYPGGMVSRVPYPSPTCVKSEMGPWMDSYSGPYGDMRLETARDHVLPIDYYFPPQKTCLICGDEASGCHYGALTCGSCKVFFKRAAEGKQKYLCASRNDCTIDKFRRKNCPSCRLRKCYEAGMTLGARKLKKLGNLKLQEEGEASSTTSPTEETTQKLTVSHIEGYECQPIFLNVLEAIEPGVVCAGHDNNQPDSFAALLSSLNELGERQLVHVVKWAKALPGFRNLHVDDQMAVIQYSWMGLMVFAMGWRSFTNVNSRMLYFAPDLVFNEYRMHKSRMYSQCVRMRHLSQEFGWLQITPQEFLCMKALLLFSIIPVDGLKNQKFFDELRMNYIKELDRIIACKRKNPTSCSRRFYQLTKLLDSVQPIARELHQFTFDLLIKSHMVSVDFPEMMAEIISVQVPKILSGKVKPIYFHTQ
- Sequence (Q96SW2 whole entry, looked up, change not shown, canonical isoform): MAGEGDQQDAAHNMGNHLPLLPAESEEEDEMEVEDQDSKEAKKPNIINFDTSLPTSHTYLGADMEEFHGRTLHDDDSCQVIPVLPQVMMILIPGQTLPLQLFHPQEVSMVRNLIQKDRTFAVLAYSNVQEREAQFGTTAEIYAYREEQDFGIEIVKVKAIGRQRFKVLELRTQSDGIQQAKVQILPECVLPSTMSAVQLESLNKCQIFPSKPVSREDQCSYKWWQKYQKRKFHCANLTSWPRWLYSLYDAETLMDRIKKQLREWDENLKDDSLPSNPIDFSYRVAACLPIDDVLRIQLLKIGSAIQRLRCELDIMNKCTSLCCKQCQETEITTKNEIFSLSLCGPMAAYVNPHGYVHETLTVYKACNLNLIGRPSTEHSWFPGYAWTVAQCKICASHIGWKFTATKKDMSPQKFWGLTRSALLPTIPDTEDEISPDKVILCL
- testProtocol: PROTAC activity at CRBN/Androgen receptor splice variant 7 in human 22Rv1 cells assessed as induction of AR-V7 degradation at 0.1 uM incubated for 24 hrs by Western blot analysis relative to control
- Type: cell-based
measuredQuantity: Activity (%)

[[record]]
molecule = "CC(C)(c1ccc(OCC2COC2)cc1)c1cc(Cl)c(OCC2CCN(C(=O)CCCCCNc3ccc4c(c3)C(=O)N(C3CCC(=O)NC3=O)C4=O)CC2)c(C#N)c1 (stereo not drawn)"
assayedtarget = "Protein cereblon/Androgen receptor (Homo sapiens), P10275+Q96SW2 [UNDEFINED MUTATION]"
measuredquantity = "Activity"
observedvalue = 71

[[record]]
molecule = "CC(C)(c1ccc(OCC2CCOC2)cc1)c1cc(Cl)c(OCC2CCN(C(=O)CCCCCNc3ccc4c(c3)C(=O)N(C3CCC(=O)NC3=O)C4=O)CC2)c(C#N)c1 (stereo not drawn)"
assayedtarget = "Protein cereblon/Androgen receptor (Homo sapiens), P10275+Q96SW2 [UNDEFINED MUTATION]"
measuredquantity = "Activity"
observedvalue = 89.1

[[record]]
molecule = "COc1ccc(C(C)(C)c2cc(Cl)c(OCC3CCN(C(=O)CCCCCNc4cc5c(cc4F)C(=O)N(C4CCC(=O)NC4=O)C5=O)CC3)c(C#N)c2)cc1 (stereo not drawn)"
assayedtarget = "Protein cereblon/Androgen receptor (Homo sapiens), P10275+Q96SW2 [UNDEFINED MUTATION]"
measuredquantity = "Activity"
observedvalue = 25.2

